Reference source for all entries: patent US20170052184A1

TESTED_ON: T1, HCV Core1-169 recombinant antigen (hepatitis C virus (HCV-1), UniProt P26664 1-169)
T1 sequence: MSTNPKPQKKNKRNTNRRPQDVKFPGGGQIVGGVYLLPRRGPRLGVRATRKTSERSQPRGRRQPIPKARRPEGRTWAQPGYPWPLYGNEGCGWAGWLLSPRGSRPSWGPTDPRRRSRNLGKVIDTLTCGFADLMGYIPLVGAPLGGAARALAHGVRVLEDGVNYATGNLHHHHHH
EXPERIMENT_NOTES: sandwich EIA, 25 ng/ml core1-169; capture mAb C11-7
QUANTITY: OD492 nm (OD492)
The figure you give is taken to be in OD492; do not add the unit.

Reference set, count: 6
BINDER	MEASURED
208A-207-271 monoclonal antibody (antibody, V domains shown) VH: QGQLQQPGAEFVKPGASLKLSCRASGYTFTSYWIHWVKQRPGQGLEWIGEIDPSDSYINQNQKFRGKATLTVDKSSSTAYMELSGLTSEDSAVYYCARHYYGVLDSWGQGTTLTVSS VL: DIVLTQSPATLSVTPGDRVSLSCRASQRIYNYLHWYQQKSHESPRLLTKYASQSISGIPSRFSGSGSGTDFILTINSVETEDFGMYFCQQSNSWPLTFGAGTKLELRR	2.47
208B-395-334 monoclonal antibody (antibody, V domains shown) VH: QVQLQQSGAGLAKPGASVKMSCKASGYTFTANKMHWTKQRPGQGLEWIGYIDPSSGYTQYNHKIQDKATLTADTSSSTAYMQLSSLTFEDSAVYYCTNFAYWGQGTLVTVSA VL: DIVLTQSPATLSVTPGDRVSLSCRASQRIYNYLHWYQQKSHESPRLLIKYASQSISGIPSRFSGSGSGTDFILTINSVETEDFGMYFCQQSNSWPLTFGAGTKLELRR	0.89
HCV 208B-1096 monoclonal antibody (antibody, V domains shown) VH: QVQLQQSGAGLAKPGASVKMSCKASGYTFTANKMHWAKQRPGQGLEWIGYIDPSSGYTEYNHKIQYKATLTADTSSSTAYMQLSTLTFEDSAVYYCTNFAYWGQGTLVTVSA VL: DIVMTQTPLTLSVTIGQPASISCKSSQSLLFTNGKTYLNWFLQRPGQSPKRLIYLLSKLDSGVPDRFSGSGSGTDFTLKISRVEAEDLGVYYCLQSTYFPLTFGAGTKLELKR	1.06
HCV 208A-557 monoclonal antibody (antibody, V domains shown) VH: QGQMQQSGAELVKPGASVKLSCKTSGFTFSSSYISWLKQKPGQSLEWIAWIYAGTGNTNYNQKFTDKAQLTVDTSSSTAYMQLSSLTTEDSAIYYCAISGTGFTYWGQGTLVTVSA VL: DIALTQSPASLAVSLGQRATISCRASQSVSTSRYSYMHWYQQKPGQPPELLIKYASNLESGVPARFSGSGSGTDFTLNIHPVGEEDTATYYCQHSWDFPFTFGSGTKLEIKR	0.22
208B-612-226 monoclonal antibody (antibody, V domains shown) VH: EVQLQQSGPELVKPGASVKMSCKASGYRFTSYVMHWVRQKPGQGLEWIGYIDPHNDDTKYSEKFRGKATLTSDKSSTTAYMELSSLTSEDSAVYYCVRYSYDRDYSPMDYWGQGTSVTVSS VL: QIVLTQSPTLMSASPGEKVTMTCSASSTVTYIYWYQQKPGSSPRLWMYDTFNLVSGVPARFSGSRSGTSYFLTISSMEGEDAATYYCQQYSDSPYTFGGGTKLEIKR	1.52
HCV 208A-692 monoclonal antibody (antibody, V domains shown) VH: QGQMQQSGAELAKPGASVKLSCKTSGFTFSSSYISWLKQKPGQSLEWIAWIFAGTGNTNYNQKFTDKAQLTVDTSSSTAYMQLSSLTTEDSAIYYCAISGTGFTYWGQGTLVTVSA VL: EVLMTQSPLSLPVSLGDQASISCRSSQSLEHSNGNTYLEWFLQRPGQPPKLLIYKVSSRFSGVPDRFSGSGSGTDFTLKISRVEAEDLGVYYCFQGSHVPFTFGSGTKLAIKR	2.92

Task: OD492 nm lookup needed for HCV 208A-293 monoclonal antibody (antibody, V domains shown) VH: EVQLQQSGPELVKPGASVKISCKASGFTFTEYAMHWMKQSHGKSLEWIGGINPTNGDAIYNQKFKDKAKLTVDRSSSTAYMELRSLTSDDSALFYCARRELDYFPSWGQGTTLTVSS VL: DIVLTQSPASLIVSLGQRATISCRASQSVSTSRFSYVHWIQQKPGQPPKLLIKYASNLESGVPVRFSGSGSGTDFILNIHPVEEEDTATYFCQHSWEFPFTFGSGTKLEIKR , thanks.
Output: 2.87
